measurement protocol: In vitro dissolution test of Drug 4 compositions in PBS
Type: physicochemical
assay context: Table 31; Drug 4, PBS, 0 to 90 min
assay readout: Cmax90 (µg/mL)

[[record]]
smiles_notation = "O=C(N[C@@H](Cc1ccccc1)[C@@H](O)C(=O)N1C[C@@H](O)[C@@H](O)C1)c1cc2cc(Cl)ccc2[nH]1"
unit_of_measure = "µg/mL"
reported_measurement = 131


====

measurement protocol: In vitro dissolution test of Drug 5 compositions in MFD solution
Format: physicochemical
assay context: Table 32; Drug 5, MFD solution, 0 to 90 min
Method: For Control C2, the crystalline form of the drug alone was used without further processing. […] The tubes were placed in a 37° C. temperature-controlled bath, and 1.8 mL phosphate buffered saline (PBS) at pH 6.5 and 290 mOsm/kg was added to each. The samples were quickly mixed using a vortex mixer for about 60 seconds. […] The resulting supernatant solutions were then sampled and diluted 1:6 (by volume) with methanol and then analyzed by high-performance liquid chromatography (HPLC). […]
assay readout: Cmax90 (ng/mL)

[[record]]
compound = "NC(=O)N(O)C1C=C(c2cccc(Oc3ccc(F)cc3)c2)CC1 (single isomer, unassigned; (+))"
unit_of_measure = "ng/mL"
reported_measurement = 32000

